# SYSTEM UNDER TEST: TDO2 (Homo sapiens, UniProt P48775)
# Construct: decreased levels of NFK in SW48 cells (high TDO expressing cells)
# Sequence (P48775 whole entry): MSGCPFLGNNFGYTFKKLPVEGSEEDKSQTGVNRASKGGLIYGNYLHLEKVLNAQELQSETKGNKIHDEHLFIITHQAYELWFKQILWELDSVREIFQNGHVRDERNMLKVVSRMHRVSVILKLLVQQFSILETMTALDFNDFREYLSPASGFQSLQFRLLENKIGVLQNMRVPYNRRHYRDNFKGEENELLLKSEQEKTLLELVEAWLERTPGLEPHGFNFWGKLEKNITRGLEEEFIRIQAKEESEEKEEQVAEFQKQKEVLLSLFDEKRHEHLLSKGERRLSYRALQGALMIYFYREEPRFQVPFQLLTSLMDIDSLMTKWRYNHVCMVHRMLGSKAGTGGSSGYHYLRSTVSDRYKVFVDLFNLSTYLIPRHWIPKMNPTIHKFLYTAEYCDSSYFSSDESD
# ASSAY: TDO2 cell assay (NFK GreenScreen, SW48 cells)
# Format: cell-based
# EXPERIMENTAL SETUP: SW48 cells (high TDO expressing), 200 uM tryptophan, 24 hours; Table 3; read-out: TDO2 Cell Fluor EC50
ASSAY METRIC: log10(EC50) (log10 of the value in µM)
The figures below represent log10 of EC50, where EC50 is stated in µM.

Record excerpt, results attached:
MOLECULE: CC(C)(C)OC(=O)N1CC[C@@H](O)[C@H]([C@H]2c3ccccc3-c3cncn32)C1 [Example 11a]
ENDPOINT RESULT: 1.18

MOLECULE: Nc1ncc2c(n1)CCC(C1c3ccccc3-c3cncn31)C2O (single isomer, unassigned) [Example 111b]
ENDPOINT RESULT: -0.92

MOLECULE: OC1CC2(COC2)C1C1c2ccccc2-c2cncn21 (single isomer, unassigned) [Example 87c]
ENDPOINT RESULT: 0.78

MOLECULE: CC(C)(C(N)=O)C(O)C1c2ccccc2-c2cncn21 (single isomer, unassigned) [Example 155c]
ENDPOINT RESULT: 1.32

MOLECULE: CC1(C)CCCC(C)(C2c3ccccc3-c3cncn32)C1O (single isomer, unassigned) [Example 90d]
ENDPOINT RESULT: 0.97

MOLECULE: CS(=O)(=O)N1CCC(O)(C2c3ccccc3-c3cncn32)C1 (single isomer, unassigned) [Example 116b]
ENDPOINT RESULT: 0.40

MOLECULE: NC(=O)C1(C(O)C2c3ccccc3-c3cncn32)CC1 (single isomer, unassigned) [Example 165c]
ENDPOINT RESULT: 1.04

MOLECULE: OC1CC2(CC2)C1C1c2ccccc2-c2cncn21 (single isomer, unassigned) [Example 72h]
ENDPOINT RESULT: 1.26

Read the next record carefully.
// returns reported log10(EC50) for input NS(=O)(=O)N1CCC2(CCC(C3c4ccccc4-c4cncn43)C2O)CC1 (single isomer, unassigned) [Example 182b]
-0.27

----------
Catalogue of compounds with associated EC50
# SYSTEM UNDER TEST: TDO2 (Homo sapiens)
# Construct: decreased levels of NFK in SW48 cells (high TDO expressing cells)
# ASSAY: TDO2 cell assay (NFK GreenScreen, SW48 cells)
# Type: cell-based
# EXPERIMENTAL SETUP: SW48 cells (high TDO expressing), 200 uM tryptophan, 24 hours; Table 3; read-out: TDO2 Cell Fluor EC50
Enter your answer as a number in nM; do not include the unit.

Example compounds with recorded EC50:
COMPOUND: CS(=O)(=O)c1ccc2c(c1)OCC(C1c3ccccc3-c3cncn31)C2O (single isomer, unassigned) [Example 91e]
EC50 (nM): 6100
--
COMPOUND: OC1COCC1C1c2ccc(F)cc2-c2cncn21 (single isomer, unassigned) [Example 30a]
EC50 (nM): 260
--
COMPOUND: O[C@H]1[C@@H]([C@@H]2c3ccccc3-c3cncn32)CCC12CCOCC2 [Example 68a]
EC50 (nM): 6800
--
COMPOUND: OC1CC2(CCC2)C1C1c2ccccc2-c2cncn21 (single isomer, unassigned) [Example 67e]
EC50 (nM): 44
--
COMPOUND: CCS(=O)(=O)N1CCC2(CCC(C3c4ccccc4-c4cncn43)C2O)CC1 (single isomer, unassigned) [Example 76a]
EC50 (nM): 9500
--
COMPOUND: OC1c2cncnc2CCC1C1c2ccccc2-c2cncn21 (single isomer, unassigned) [Example 94f]
EC50 (nM): 12000
--
COMPOUND: O[C@@H]1c2ncccc2CC[C@H]1[C@H]1c2ccccc2-c2cncn21 (single isomer, unassigned) [Example 126b]
EC50 (nM): 83
--
COMPOUND: NC(=O)c1cc2n(n1)CCC(C1c3ccccc3-c3cncn31)C2O (single isomer, unassigned) [Example 172b]
EC50 (nM): 1100
--
COMPOUND: OC1CC2(COC2)C1C1c2ccccc2-c2cncn21 (single isomer, unassigned) [Example 87f]
EC50 (nM): 17000
--
COMPOUND: CC1(C)COCC(C2c3ccccc3-c3cncn32)C1O (single isomer, unassigned) [Example 66b]
EC50 (nM): 190

Recorded EC50 for Nc1ccc2c(n1)CCC(C1c3ccccc3-c3cncn31)C2O (single isomer, unassigned) [Example 121h] with TDO2 (Homo sapiens), please?
4800

Form entry - test system: TDO2 (Homo sapiens); read-out: EC50; compound: CC1(C)C[C@@H](O)[C@H]1[C@H]1c2ccccc2-c2cncn21 (single isomer, unassigned) [Example 22f]
1100

Tell me reported EC50 for CC(C)C(O)C1c2ccc(F)cc2-c2cncn21 (single isomer, unassigned) [Example 135d] , tested with TDO2 (Homo sapiens).
130

----------
# SYSTEM UNDER TEST: TDO2 (Homo sapiens)
# Construct: decreased levels of NFK in SW48 cells (high TDO expressing cells)
# ASSAY: TDO2 cell assay (NFK GreenScreen, SW48 cells)
# Format: cell-based
# EXPERIMENTAL SETUP: SW48 cells (high TDO expressing), 200 uM tryptophan, 24 hours; Table 3; read-out: TDO2 Cell Fluor EC50
Binary call on EC50 with cut-off 700 nM: strictly below means True, and equality or higher means False.

Reference set (8 entries):
COMPOUND: NS(=O)(=O)N1CCC2(CC1)CC(C1c3ccccc3-c3cncn31)C2O (single isomer, unassigned) [Example 181a]
CLASS ASSIGNMENT: True

COMPOUND: OC1c2cnncc2CCC1C1c2ccccc2-c2cncn21 (single isomer, unassigned) [Example 112h]
CLASS ASSIGNMENT: False

COMPOUND: OC1CCCCC1C1c2ccc(F)cc2-c2cncn21 (single isomer, unassigned) [Example 25a]
CLASS ASSIGNMENT: True

COMPOUND: OC1CC2(COC2)C1C1c2ccccc2-c2cncn21 (single isomer, unassigned) [Example 87g]
CLASS ASSIGNMENT: True

COMPOUND: NC(=O)c1ccc2c(c1)C(O)C(C1c3ccccc3-c3cncn31)CC2 (single isomer, unassigned) [Example 122e]
CLASS ASSIGNMENT: True

COMPOUND: N#CC1CCC(O)(C2c3ccccc3-c3cncn32)CC1 (single isomer, unassigned) [Example 145b]
CLASS ASSIGNMENT: False

COMPOUND: O=c1cccc2n1CCC(C1c3ccccc3-c3cncn31)C2O (single isomer, unassigned) [Example 29a]
CLASS ASSIGNMENT: False

COMPOUND: O[C@H]1c2ccnn2CC[C@H]1[C@H]1c2ccccc2-c2cncn21 [Example 56e]
CLASS ASSIGNMENT: False

Bench note: check whether CS(=O)(=O)N1CCC2(CCC(C3c4ccccc4-c4cncn43)C2O)CC1 (single isomer, unassigned) [Example 180a] shows EC50 below 700 nM
True

Consider NS(=O)(=O)N1CC(O)C(C2c3ccccc3-c3cncn32)C1 (single isomer, unassigned) [Example 28d] . Does its EC50 lie strictly below 700 nM?
False

Could you please tell me whether EC50 recorded for OC1(C2c3ccccc3-c3cncn32)CCC1 (single isomer, unassigned) [Example 47b] is less than 700 nM?
False

A record lists OC1c2cnnn2CCC1C1c2ccccc2-c2cncn21 (single isomer, unassigned) [Example 139a] . Is its EC50 below 700 nM?
False

Is 700 nM strictly greater than the compound's reported EC50? compound: CC(=O)N1CCC(O)C(C2c3ccccc3-c3cncn32)C1 (single isomer, unassigned) [Example 12a]
False

Just wondering, is EC50 of C[C@@H](O)[C@H]1c2ccccc2-c2cncn21 [Example 42b] below 700 nM?
False

Would you kindly verify if EC50 of CC(C)(C)OC(=O)N1CCC(C2c3ccccc3-c3cncn32)C(O)C1 (single isomer, unassigned) [Example 10b] is strictly less than 700 nM?
False

----------
Catalogue of molecules with associated EC50
# SYSTEM UNDER TEST: TDO2 (Homo sapiens, UniProt P48775)
# Construct: decreased levels of NFK in SW48 cells (high TDO expressing cells)
# ASSAY: TDO2 cell assay (NFK GreenScreen, SW48 cells)
# Format: cell-based
# EXPERIMENTAL SETUP: SW48 cells (high TDO expressing), 200 uM tryptophan, 24 hours; Table 3; read-out: TDO2 Cell Fluor EC50
Give the number; nM is assumed, so skip it.

MOLECULE: CS(=O)(=O)c1ccc2c(c1)CCC(C1c3ccccc3-c3cncn31)C2O (single isomer, unassigned) [Example 36f]
EC50 / nM: 140

Which measured EC50 value corresponds to CC(C)(C)OC(=O)N1CC2(CC(C3c4ccccc4-c4cncn43)C2O)C1 (single isomer, unassigned) [Example 41c] ?
23000

Param item = OC1CCCOCC1C1c2ccccc2-c2cncn21 (single isomer, unassigned) [Example 86d] ; retrieve measured EC50.
140

Find the recorded EC50 belonging to Cc1cc2c(cn1)[C@@H](O)[C@@H]([C@H]1c3ccccc3-c3cncn31)C2 [Example 59a] and report it.
950

Quick one: EC50 for NC(=O)c1ccc2c(c1)CC[C@@H]([C@H]1c3ccccc3-c3cncn31)[C@@H]2O [Example 60e] ?
35
